The measured values listed here are drawn from patent US9845330B2.

Recorded measurements of Cytotoxicity, one per entry
# System: macrophage J774 cells line
# assay.overview: Cytotoxicity assay (MTT) in macrophage J774 cells
# Format: cell-based
# experimental.context: J774 cells, 24 hrs, MTT
# Description: The study was carried out using macrophage J774 cells line (ATCC-USA). […] After the completion of incubation, the medium was removed and cell viability was evaluated by assaying for the ability of functional mitochondria to catalyze the reduction of 3-(4,5-dimethylthiazol-2-yl)-2,5-diphenyltetrazolium bromide (MTT) to form formazan salt by mitochondrial dehydrogenases, and determined by Elisa reader at 450 nm (Multiskan Spectrum; Thermo Electron Corporation, USA). […]

mol	Cytotoxicity
Cc1ccc(NC(=O)Nc2ccc(OC[C@@]3(C)Cn4cc([N+](=O)[O-])nc4O3)cc2)cc1	>40 µg/mL
C[C@]1(COc2ccc(-c3cc(COc4ccccc4F)on3)cc2)Cn2cc([N+](=O)[O-])nc2O1	>40 µg/mL
Cc1ccc(N(C)S(=O)(=O)c2ccc(OC[C@@]3(C)Cn4cc([N+](=O)[O-])nc4O3)cc2)cc1	>40 µg/mL
C[C@]1(COc2ccc(-n3cc(-c4ccc(F)cc4F)nn3)cc2)Cn2cc([N+](=O)[O-])nc2O1	>40 µg/mL
C[C@]1(COc2ccc(S(=O)(=O)Nc3ccc(C(F)(F)F)cc3)cc2)Cn2cc([N+](=O)[O-])nc2O1	>40 µg/mL
C[C@]1(COc2ccc(-n3nnnc3Oc3ccc(F)cc3)cc2)Cn2cc([N+](=O)[O-])nc2O1	>40 µg/mL
C[C@]1(COc2ccc(S(=O)(=O)N3CCN(c4ccc(F)cc4)CC3)cc2)Cn2cc([N+](=O)[O-])nc2O1	>40 µg/mL
Cc1ccc(NS(=O)(=O)c2ccc(OC[C@@]3(C)Cn4cc([N+](=O)[O-])nc4O3)cc2)cc1	>40 µg/mL
